Every entry's value here was drawn from ChEMBL document CHEMBL2057080.

- TARGET_DESC: DNA repair nuclease/redox regulator APEX1 (Homo sapiens, UniProt P27695)
- Sequence (P27695 whole entry): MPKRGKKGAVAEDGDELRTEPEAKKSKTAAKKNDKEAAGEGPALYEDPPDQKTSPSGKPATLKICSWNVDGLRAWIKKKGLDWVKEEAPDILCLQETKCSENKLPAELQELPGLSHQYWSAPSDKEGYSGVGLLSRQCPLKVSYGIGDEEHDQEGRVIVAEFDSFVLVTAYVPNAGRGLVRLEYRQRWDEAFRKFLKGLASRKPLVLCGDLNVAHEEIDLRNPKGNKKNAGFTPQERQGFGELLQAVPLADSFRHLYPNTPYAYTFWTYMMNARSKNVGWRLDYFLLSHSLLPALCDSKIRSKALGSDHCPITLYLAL
- MEASUREMENT_PROTOCOL: Inhibition of human recombinant APE1 at 57 uM after 15 mins by fluorescence based HTS assay
Returns one of true (1) or false (0); true (1) when inhibition is >= 50%.

SUBSTANCE_SMILES: CC(=O)Nc1sc2c(c1-c1cc3ccccc3o1)CCNC2
CATEGORY: true (1)

SUBSTANCE_SMILES: CC(=O)Nc1sc2c(c1-c1nc3ccccc3s1)CCSC2
CATEGORY: true (1)

SUBSTANCE_SMILES: CC(=O)Nc1sc2c(c1-c1nc3ccccc3s1)CCOC2
CATEGORY: false (0)

SUBSTANCE_SMILES: CC(C)N1CCc2c(sc(NC(=O)Cc3ccccc3)c2-c2nc3ccccc3s2)C1
CATEGORY: true (1)

SUBSTANCE_SMILES: O=C(O)c1cc2cccc([N+](=O)[O-])c2[nH]1
CATEGORY: false (0)

Q) Threshold query (inhibition >= 50%) on `CC(=O)Nc1sc2c(c1-c1cc3ccccc3s1)CCNC2`
A) false (0)

Q) Threshold query (inhibition >= 50%) on `CC(=O)Nc1sc2c(c1-c1nccs1)CCNC2`
A) true (1)

Q) Threshold query (inhibition >= 50%) on `CC(C)N1CCc2c(sc(NC(=O)c3ccccc3)c2-c2nc3ccccc3s2)C1`
A) true (1)

Q) Threshold query (inhibition >= 50%) on `CC(=O)Nc1sc2c(c1C(=O)O)CCNC2`
A) false (0)
